The reported numbers originate from patent US20150141381A1.

system: S. aureus RN450; experiment: In Vitro Anti-Bacterial Activity Assay (MIC), gram positive; format: cell-based; details: Staphylococcus aureus, RN450, 18 h, gram positive bacteria; read-out: Antibiotic Activity Gram + (MIC)
recorded-endpoint: MIC

{"molecule": "CN(C)c1cc(CCc2ccc(F)cc2)c(O)c2c1C[C@H]1C[C@H]3[C@H](N(C)C)C(O)=C(C(N)=O)C(=O)[C@@]3(O)C(O)=C1C2=O", "measured-target": "S. aureus RN450", "recorded-endpoint": "MIC", "reported-measurement": "< 4 µg/mL"}
{"molecule": "CN(C)c1cc(CNCC23CC4CC(CC(C4)C2)C3)c(O)c2c1C[C@H]1C[C@H]3[C@H](N(C)C)C(O)=C(C(N)=O)C(=O)[C@@]3(O)C(O)=C1C2=O", "measured-target": "S. aureus RN450", "recorded-endpoint": "MIC", "reported-measurement": "< 4 µg/mL"}
{"molecule": "Cc1ccc(/C=C/c2ccc(O)c3c2C[C@H]2C[C@H]4[C@H](N(C)C)C(O)=C(C(N)=O)C(=O)[C@@]4(O)C(O)=C2C3=O)cc1 [drawing 3345]", "measured-target": "S. aureus RN450", "recorded-endpoint": "MIC", "reported-measurement": "< 4 µg/mL"}

* * *

tested on: E. coli mL308 225; assay: In Vitro Anti-Bacterial Activity Assay (MIC), gram negative; type: cell-based; conditions: Escherichia coli, ML308225, 18 h, gram negative bacteria; read-out: Antibiotic Activity Gram − (MIC)
Property: MIC; scope: individual compounds

{"smiles-entry": "CC(=O)Nc1ccc(-c2ccc(O)c3c2C[C@H]2C[C@H]4[C@H](N(C)C)C(O)=C(C(N)=O)C(=O)[C@@]4(O)C(O)=C2C3=O)cn1", "MIC": "> 4 µg/mL"}
{"smiles-entry": "CN(C)[C@@H]1C(O)=C(C(N)=O)C(=O)[C@@]2(O)C(O)=C3C(=O)c4c(O)c(CS(C)(=O)=O)cc(I)c4C[C@H]3C[C@@H]12", "MIC": "> 4 µg/mL"}
{"smiles-entry": "CN(C)[C@@H]1C(O)=C(C(N)=O)C(=O)[C@@]2(O)C(O)=C3C(=O)c4c(O)ccc(-c5ccc(-n6cccc6)nc5)c4C[C@H]3C[C@@H]12", "MIC": "< 4 µg/mL"}
{"smiles-entry": "C=C(Cl)c1cc(C(C)(C)C)c(O)c2c1C[C@H]1C[C@H]3[C@H](N(C)C)C(O)=C(C(N)=O)C(=O)[C@@]3(O)C(O)=C1C2=O", "MIC": "< 4 µg/mL"}
{"smiles-entry": "CN(C)[C@@H]1C(O)=C(C(N)=O)C(=O)[C@@]2(O)C(O)=C3C(=O)c4c(O)ccc(-c5ccc(C(=O)Cl)c6ccccc56)c4C[C@H]3C[C@@H]12", "MIC": "> 4 µg/mL"}
{"smiles-entry": "CCOC(=O)CNCc1ccc(OC)c(-c2ccc(O)c3c2C[C@H]2C[C@H]4[C@H](N(C)C)C(O)=C(C(N)=O)C(=O)[C@@]4(O)C(O)=C2C3=O)c1", "MIC": "< 4 µg/mL"}

* * *

tested on: E. coli mL308 225; assay: In Vitro Anti-Bacterial Activity Assay (MIC), gram negative; format: cell-based; conditions: Escherichia coli, ML308225, 18 h, gram negative bacteria; read-out: Antibiotic Activity Gram − (MIC)

{"smiles-entry": "CN(C)CCC(=O)c1cc(C(C)(C)C)c(O)c2c1C[C@H]1C[C@H]3[C@H](N(C)C)C(O)=C(C(N)=O)C(=O)[C@@]3(O)C(O)=C1C2=O", "MIC": "< 4 µg/mL"}
{"smiles-entry": "CN(C)c1cc(Cn2ccc(C=O)c2)c(O)c2c1C[C@H]1C[C@H]3[C@H](N(C)C)C(O)=C(C(N)=O)C(=O)[C@@]3(O)C(O)=C1C2=O", "MIC": "> 4 µg/mL"}
{"smiles-entry": "CN(C)[C@@H]1C(O)=C(C(N)=O)C(=O)[C@@]2(O)C(O)=C3C(=O)c4c(O)ccc(Cl)c4[C@](C)(O)[C@H]3C[C@@H]12", "MIC": "> 4 µg/mL"}
{"smiles-entry": "CN(C)c1cc(CNCC2CC2)c(O)c2c1C[C@H]1C[C@H]3[C@H](N(C)C)C(O)=C(C(N)=O)C(=O)[C@@]3(O)C(O)=C1C2=O", "MIC": "> 4 µg/mL"}
{"smiles-entry": "C[C@H]1c2ccc(-c3cc4ccccc4s3)c(O)c2C(=O)C2=C(O)[C@]3(O)C(=O)C(C(N)=O)=C(O)[C@@H](N(C)C)[C@@H]3[C@@H](O)[C@@H]21", "MIC": "< 4 µg/mL"}
{"smiles-entry": "CN(C)c1cc(CNc2ccccn2)c(O)c2c1C[C@H]1C[C@H]3[C@H](N(C)C)C(O)=C(C(N)=O)C(=O)[C@@]3(O)C(O)=C1C2=O", "MIC": "> 4 µg/mL"}
